system: NCI-H23; assay: Cytotoxicity against human NCI-H23 cells assessed as cell viability at 10 uM incubated for 48 hrs by sulforhodamine B assay relative to control; assay type: functional; conditions: read-out: Activity
viability at 10 µM listing for selected compounds.
REPORTED METRIC: viability at 10 µM (%)

LINE NOTATION: O=S(=O)(NCCNc1nccc(-c2c(-c3cccc(F)c3)nc3sccn23)n1)c1ccc(C(F)(F)F)cc1
OBSERVED MEASUREMENT: 86.8

LINE NOTATION: O=S(=O)(NCCCNc1nccc(-c2c(-c3cccc(F)c3)nc3sccn23)n1)c1ccc(F)cc1
OBSERVED MEASUREMENT: 83.7

LINE NOTATION: O=S(=O)(NCCNc1nccc(-c2c(-c3cccc(F)c3)nc3sccn23)n1)c1ccc(F)cc1
OBSERVED MEASUREMENT: 79.3

LINE NOTATION: O=S(=O)(NCCCNc1nccc(-c2c(-c3cccc(F)c3)nc3sccn23)n1)c1cccc2ccccc12
OBSERVED MEASUREMENT: 66.2

LINE NOTATION: O=S(=O)(NCCNc1nccc(-c2c(-c3cccc(F)c3)nc3sccn23)n1)c1cccc(F)c1
OBSERVED MEASUREMENT: 83.4

LINE NOTATION: Cc1ccc(S(=O)(=O)NCCCNc2nccc(-c3c(-c4cccc(F)c4)nc4sccn34)n2)cc1
OBSERVED MEASUREMENT: 96.2

LINE NOTATION: O=S(=O)(NCCCNc1nccc(-c2c(-c3cccc(F)c3)nc3sccn23)n1)c1ccc(Br)cc1
OBSERVED MEASUREMENT: 57.4

LINE NOTATION: O=S(=O)(NCCCNc1nccc(-c2c(-c3cccc(F)c3)nc3sccn23)n1)c1ccc(Cl)cc1
OBSERVED MEASUREMENT: 86

LINE NOTATION: O=C(NCCNc1nccc(-c2c(-c3cccc(F)c3)nc3sccn23)n1)c1c(F)cccc1F
OBSERVED MEASUREMENT: 61.9

LINE NOTATION: O=S(=O)(NCCNc1nccc(-c2c(-c3cccc(F)c3)nc3sccn23)n1)c1ccc(Cl)cc1
OBSERVED MEASUREMENT: 74.9

LINE NOTATION: O=S(=O)(NCCCNc1nccc(-c2c(-c3cccc(F)c3)nc3sccn23)n1)c1ccc(C(F)(F)F)cc1
OBSERVED MEASUREMENT: 90

LINE NOTATION: O=C(NCCCNc1nccc(-c2c(-c3cccc(F)c3)nc3sccn23)n1)C1CCCCC1
OBSERVED MEASUREMENT: 75.7

LINE NOTATION: O=C(NCCNc1nccc(-c2c(-c3cccc(F)c3)nc3sccn23)n1)c1ccccc1
OBSERVED MEASUREMENT: 64.9

LINE NOTATION: O=S(=O)(NCCCNc1nccc(-c2c(-c3cccc(F)c3)nc3sccn23)n1)c1ccc(O)cc1
OBSERVED MEASUREMENT: 87.6
